tested on: HeLa; experiment: SRB colorimetric assay of cell growth and viability, HeLa; format: cell-based, human; conditions: HELA; 48 hours exposure; read-out: LC50 HELA
Where a SMILES comes first, the peptide text is derived from it. Bridges are numbered along the chain shown (N, C = ends). [ ]: non-standard residue; d: D form. The star is where a group is joined. Bip = N[C@@H](Cc1ccc(-c2ccccc2)cc1)C(=O)O; d(aIle) = CC[C@H](C)[C@@H](N)C(=O)O; d(aThr) = C[C@@H](O)[C@@H](N)C(=O)O; Hexanoyl(5-Me) = CC(C)CCCC(=O)*; Orn = NCCC[C@H](N)C(=O)O; Dhb = C/C=C(\N)C(=O)O
parameter.measured: CC50 (µM)

molecule="C/C=C1\\NC(=O)[C@H](Cc2ccc(-c3ccccc3)cc2)NC(=O)[C@@H](C(C)C)NC(=O)[C@@H]([C@@H](C)CC)NC(=O)[C@H](NC(=O)[C@H](NC(=O)[C@H](CCCN)NC(=O)[C@H]2CCCN2C(=O)[C@H](NC(=O)[C@@H](NC(=O)[C@@H](NC(=O)[C@H](NC(=O)CCCC(C)C)C(C)C)[C@@H](C)O)C(C)C)C(C)C)[C@@H](C)CC)[C@@H](C)OC(=O)[C@H](C(C)C)NC1=O [Compound 86, [Bip^3]-KF] ({Hexanoyl(5-Me)}-[dV]TV[dV][dP][Orn][d(aIle)][d(aThr)][d(aIle)][dV][Bip][Dhb]V; ester 8-C)" parameter_measured=CC50 unit_label=µM numeric_readout=3.9
molecule="C/C=C1\\NC(=O)[C@H](Cc2ccccc2)NC(=O)[C@@H](C(C)C)NC(=O)[C@@H]([C@@H](C)CC)NC(=O)[C@H](NC(=O)[C@H](NC(=O)[C@H](CCCN)NC(=O)[C@H]2CCCN2C(=O)[C@H](NC(=O)[C@@H](NC(=O)[C@H](Cc2ccccc2)NC(=O)[C@H](NC(=O)CCCC(C)C)C(C)C)C(C)C)C(C)C)[C@@H](C)CC)[C@@H](C)OC(=O)[C@H](C(C)C)NC1=O [Compound 114, [Phe^12]-KF] ({Hexanoyl(5-Me)}-[dV]FV[dV][dP][Orn][d(aIle)][d(aThr)][d(aIle)][dV]F[Dhb]V; ester 8-C)" parameter_measured=CC50 unit_label=µM numeric_readout=5.69
molecule="[2H]C([2H])([2H])C([2H])(C([2H])([2H])[2H])[C@]([2H])(NC(=O)[C@@H](NC(=O)[C@H](NC(=O)CCCC(C)C)C(C)C)[C@@H](C)O)C(=O)N[C@@H](C(=O)N1CCC[C@@H]1C(=O)N[C@@H](CCCN)C(=O)N[C@@H](C(=O)N[C@H]1C(=O)N[C@H]([C@@H](C)CC)C(=O)N[C@H](C(C)C)C(=O)N[C@@H](Cc2ccccc2)C(=O)N/C(=C\\C)C(=O)N[C@@H](C(C)C)C(=O)O[C@@H]1C)[C@@H](C)CC)C(C)C [Compound 100, [L-Val-d8^11]-KF]" parameter_measured=CC50 unit_label=µM numeric_readout=1.88

* * *

System: SK-MEL-28
Experiment: SRB colorimetric assay of cell growth and viability, SK-MEL-28
Assay type: cell-based, human
Details: MEL-28; 48 hours exposure; read-out: LC50 MEL-28
Experimental: The finality of this assay is to interrupt the growth of a “in vitro” tumor cell culture by means a continued exhibition of the cells to the sample to be testing. […] Cells are seeded in 96 well microtiter plates, at 5×10^3 cells per well in aliquots of 195 μL medium, and they are allowed to attach to the plate surface by growing in drug free medium for 18 hours. […] Optical densities are read on a automated spectrophotometric plate reader at a single wavelength of 490 nm. […]
Where a SMILES comes first, the peptide text is derived from it. Bridges are numbered along the chain shown (N, C = ends). [ ]: non-standard residue; d: D form. The star is where a group is joined. 2Nal = N[C@@H](Cc1ccc2ccccc2c1)C(=O)O; d(aIle) = CC[C@H](C)[C@@H](N)C(=O)O; d(aThr) = C[C@@H](O)[C@@H](N)C(=O)O; Hexanoyl(5-Me) = CC(C)CCCC(=O)*; Orn = NCCC[C@H](N)C(=O)O; Dhb = C/C=C(\N)C(=O)O
parameter.measured: CC50

compound="C/C=C1\\NC(=O)[C@H](Cc2cccc(Cl)c2)NC(=O)[C@@H](C(C)C)NC(=O)[C@@H]([C@@H](C)CC)NC(=O)[C@H](NC(=O)[C@H](NC(=O)[C@H](CCCN)NC(=O)[C@H]2CCCN2C(=O)[C@H](NC(=O)[C@@H](NC(=O)[C@@H](NC(=O)[C@H](NC(=O)CCCC(C)C)C(C)C)[C@@H](C)O)C(C)C)C(C)C)[C@@H](C)CC)[C@@H](C)OC(=O)[C@H](C(C)C)NC1=O [Compound 82, [Phe(3-Cl)^3]-KF]" system_under_test=SK-MEL-28 result="0.935 µM"
compound="C/C=C1\\NC(=O)[C@H](Cc2ccccc2)NC(=O)[C@@H](C(C)C)NC(=O)[C@@H]([C@@H](C)CC)NC(=O)[C@H](NC(=O)[C@H](NC(=O)[C@H](CCCN)NC(=O)[C@H]2CCCN2C(=O)[C@H](NC(=O)[C@@H](NC(=O)[C@H](CC(C)C)NC(=O)[C@H](NC(=O)CCCC(C)C)C(C)C)C(C)C)C(C)C)[C@@H](C)CC)[C@@H](C)OC(=O)[C@H](C(C)C)NC1=O [Compound 113, [Leu^12]-KF] ({Hexanoyl(5-Me)}-[dV]LV[dV][dP][Orn][d(aIle)][d(aThr)][d(aIle)][dV]F[Dhb]V; ester 8-C)" system_under_test=SK-MEL-28 result="5.37 µM"
compound="C/C=C1\\NC(=O)[C@H](Cc2ccccc2)NC(=O)[C@@H](C(C)C)NC(=O)[C@@H]([C@@H](C)CC)NC(=O)[C@H](NC(=O)[C@H](NC(=O)[C@H](CCCN)NC(=O)[C@H]2CCCN2C(=O)[C@H](NC(=O)[C@@H](NC(=O)[C@@H](NC(=O)[C@@H](CCCN)NC(=O)CCCC(C)C)[C@@H](C)O)C(C)C)C(C)C)[C@@H](C)CC)[C@@H](C)OC(=O)[C@H](C(C)C)NC1=O [Compound 118, [D-Orn^13]-KF]" system_under_test=SK-MEL-28 result="5.55 µM"
compound="C/C=C1\\NC(=O)[C@H](Cc2ccc3ccccc3c2)NC(=O)[C@@H](C(C)C)NC(=O)[C@@H]([C@@H](C)CC)NC(=O)[C@H](NC(=O)[C@H](NC(=O)[C@H](CCCN)NC(=O)[C@H]2CCCN2C(=O)[C@H](NC(=O)[C@@H](NC(=O)[C@@H](NC(=O)[C@H](NC(=O)CCCC(C)C)C(C)C)[C@@H](C)O)C(C)C)C(C)C)[C@@H](C)CC)[C@@H](C)OC(=O)[C@H](C(C)C)NC1=O [Compound 85, [Nal^3]-KF] ({Hexanoyl(5-Me)}-[dV]TV[dV][dP][Orn][d(aIle)][d(aThr)][d(aIle)][dV][2Nal][Dhb]V; ester 8-C)" system_under_test=SK-MEL-28 result="0.579 µM"
compound="C/C=C1\\NC(=O)[C@H](Cc2ccc(Cl)cc2)NC(=O)[C@@H](C(C)C)NC(=O)[C@@H]([C@@H](C)CC)NC(=O)[C@H](NC(=O)[C@H](NC(=O)[C@H](CCCN)NC(=O)[C@H]2CCCN2C(=O)[C@H](NC(=O)[C@@H](NC(=O)[C@@H](NC(=O)[C@H](NC(=O)CCCC(C)C)C(C)C)[C@@H](C)O)C(C)C)C(C)C)[C@@H](C)CC)[C@@H](C)OC(=O)[C@H](C(C)C)NC1=O [Compound 83, [Phe(4-Cl)^3]-KF]" system_under_test=SK-MEL-28 result="0.561 µM"
compound="[2H]C([2H])([2H])C([2H])(C([2H])([2H])[2H])[C@]([2H])(NC(=O)[C@@H](NC(=O)[C@H](NC(=O)CCCC(C)C)C(C)C)[C@@H](C)O)C(=O)N[C@@H](C(=O)N1CCC[C@@H]1C(=O)N[C@@H](CCCN)C(=O)N[C@@H](C(=O)N[C@H]1C(=O)N[C@H]([C@@H](C)CC)C(=O)N[C@H](C(C)C)C(=O)N[C@@H](Cc2ccccc2)C(=O)N/C(=C\\C)C(=O)N[C@@H](C(C)C)C(=O)O[C@@H]1C)[C@@H](C)CC)C(C)C [Compound 100, [L-Val-d8^11]-KF]" system_under_test=SK-MEL-28 result="1.88 µM"
compound="C/C=C1\\NC(=O)[C@H](Cc2ccccc2)NC(=O)[C@@H](C(C)C)NC(=O)[C@@H]([C@@H](C)CC)NC(=O)[C@H](NC(=O)[C@H](NC(=O)[C@H](CCCN)NC(=O)[C@H]2CCCN2C(=O)[C@H](NC(=O)[C@@H](NC(=O)[C@@H]2CCCN2C(=O)[C@H](NC(=O)CCCC(C)C)C(C)C)C(C)C)C(C)C)[C@@H](C)CC)[C@@H](C)OC(=O)[C@H](C(C)C)NC1=O [Compound 117, [Pro^12]-KF] ({Hexanoyl(5-Me)}-[dV]PV[dV][dP][Orn][d(aIle)][d(aThr)][d(aIle)][dV]F[Dhb]V; ester 8-C)" system_under_test=SK-MEL-28 result="6.78 µM"
compound="C/C=C1\\NC(=O)[C@H](Cc2ccccc2Cl)NC(=O)[C@@H](C(C)C)NC(=O)[C@@H]([C@@H](C)CC)NC(=O)[C@H](NC(=O)[C@H](NC(=O)[C@H](CCCN)NC(=O)[C@H]2CCCN2C(=O)[C@H](NC(=O)[C@@H](NC(=O)[C@@H](NC(=O)[C@H](NC(=O)CCCC(C)C)C(C)C)[C@@H](C)O)C(C)C)C(C)C)[C@@H](C)CC)[C@@H](C)OC(=O)[C@H](C(C)C)NC1=O [Compound 81, [Phe(2-Cl)^3]-KF]" system_under_test=SK-MEL-28 result="1.68 µM"
compound="C/C=C1\\NC(=O)[C@H](Cc2ccccc2)NC(=O)[C@@H](C(C)C)NC(=O)[C@@H]([C@@H](C)CC)NC(=O)[C@H](NC(=O)[C@H](NC(=O)[C@H](CCCN)NC(=O)[C@H]2CCCN2C(=O)[C@H](NC(=O)[C@@H](NC(=O)[C@H](CCCN)NC(=O)[C@H](NC(=O)CCCC(C)C)C(C)C)C(C)C)C(C)C)[C@@H](C)CC)[C@@H](C)OC(=O)[C@H](C(C)C)NC1=O [Compound 116, [Orn^12]-KF] ({Hexanoyl(5-Me)}-[dV][Orn]V[dV][dP][Orn][d(aIle)][d(aThr)][d(aIle)][dV]F[Dhb]V; ester 8-C)" system_under_test=SK-MEL-28 result="6.71 µM"

Reference for the values: patent US20070117743A1
